value.type: melting point

Here are 3 compounds together with their reported answers.
Per the records, this compound ( CCc1cc(OCP(=O)(O)O)c2nc(N)sc2c1 ) has melting point equal to > 220 °C (dec.)

Per the records, this compound ( CCc1cc(OCP(=O)(O)O)c2nc(N)sc2c1F ) has melting point equal to > 250 °C (dec.)

Per the records, this compound ( Cc1cc(OCP(=O)(O)O)c2nc(N)sc2c1Cl ) has melting point equal to > 250 °C (dec.)

Others:
Per the records, this compound ( CCCc1cnc(N)nc1-c1ccc(P(=O)(O)O)o1 ) has melting point equal to 258 to 259 °C

----------
pIC50: −log10 of the molar value.
rat liver FBPase (Rattus norvegicus) data, read-out pIC50
value.type: pIC50

Here are 5 molecules together with their reported answers.
Per the records, this molecule ( CCCSc1oc(N)nc1-c1ccc(P(=O)(O)O)o1 ) has pIC50 equal to 6.10

Per the records, this molecule ( CCc1cc(F)c(N)c2nc(-c3ccc(P(=O)(O)O)o3)n(CC(C)C)c12 ) has pIC50 equal to 6.26

Per the records, this molecule ( CCc1sc(N)nc1C(=O)OCP(=O)(O)O ) has pIC50 equal to 6.31

Per the records, this molecule ( CCCc1cnc(N)nc1-c1ccc(P(=O)(O)O)o1 ) has pIC50 equal to 5.74

Per the records, this molecule ( CC(C)Cc1sc(N)nc1-c1ccc(P(=O)(O)O)o1 ) has pIC50 equal to 6.74

[P] CCOC(=O)c1oc(N)nc1-c1ccc(P(=O)(O)O)o1
[Q] Nc1ccc(C2CC2)c(-c2ccc(P(=O)(O)O)o2)n1
[R] Nc1ncnc2c1ncn2[C@@H]1O[C@H](COP(=O)(O)O)[C@@H](O)[C@H]1O [AMP, reference compound]
Output the entries ranked by pIC50 from maximum down to minimum. // list labels; follow requested order Q, P, R

----------
value.type: melting point

Per the records, this compound ( CCCOc1c(SC#N)cc(OCP(=O)(O)O)c2nc(N)sc12 ) has melting point equal to > 220 °C (dec.)

Others:
Per the records, this compound ( N#Cc1ccc(OCP(=O)(O)O)c2nc(N)sc12 ) has melting point equal to > 250 °C (dec.)

Per the records, this compound ( Cc1cc(OCP(=O)(O)O)c2nc(N)sc2c1Br ) has melting point equal to > 250 °C (dec.)

Per the records, this compound ( Cc1c(Cl)c(OCP(=O)(O)O)c2nc(N)sc2c1Cl ) has melting point equal to > 230 °C (dec.)

Per the records, this compound ( Nc1nc2c(OCP(=O)(O)O)cc(Cl)cc2s1 ) has melting point equal to > 250 °C (dec.)

Per the records, this compound ( Nc1nc2c(OCP(=O)(O)O)cc(Cl)c(Cl)c2s1 ) has melting point equal to > 250 °C (dec.)

----------
# target: human liver FBPase (Homo sapiens)
# Sequence (P09467 2-338 limits assumed): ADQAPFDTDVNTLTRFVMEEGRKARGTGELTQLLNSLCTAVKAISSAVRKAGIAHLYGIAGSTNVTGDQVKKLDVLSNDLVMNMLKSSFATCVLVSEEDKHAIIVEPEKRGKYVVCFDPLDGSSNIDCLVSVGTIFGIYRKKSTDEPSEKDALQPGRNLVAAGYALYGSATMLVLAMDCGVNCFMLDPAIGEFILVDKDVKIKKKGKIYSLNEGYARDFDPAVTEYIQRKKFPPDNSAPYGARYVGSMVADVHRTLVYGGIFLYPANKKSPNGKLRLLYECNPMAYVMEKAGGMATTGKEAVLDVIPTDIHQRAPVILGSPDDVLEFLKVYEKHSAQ
pIC50: −log10 of the molar value. Counter-ions that a name gives are not always drawn.
value.type: pIC50

Per the records, this compound ( CCCc1ccc(N)nc1-c1ccc(P(=O)(O)O)o1 [Compound 15.14] ) has pIC50 equal to 7.49

Per the records, this compound ( CCCSc1oc(N)nc1-c1ccc(P(=O)(O)O)o1 [Compound 10.43] ) has pIC50 equal to 7.15

Per the records, this compound ( CC(C)Cc1[se]c(N)nc1-c1ccc(P(=O)(O)O)o1 [Compound 3.70] ) has pIC50 equal to 7.40

Per the records, this compound ( CSc1nccnc1-c1ccc(P(=O)(O)O)o1 [Compound 17.6] ) has pIC50 equal to 6.21

Per the records, this compound ( CCc1sc(N)nc1C(=O)OCP(=O)(O)O [Compound 18.3] ) has pIC50 equal to 7.30

Per the records, this compound ( Nc1nc(-c2cccc(P(=O)(O)O)n2)cs1 [Compound 3.67, hydrobromide] ) has pIC50 equal to 5.70

[P] CC(C)Cc1cn(C)nc1-c1ccc(P(=O)(O)O)o1 [Compound 19.2]
[Q] CC(C)c1sc(N)nc1C(=O)OCP(=O)(O)O [Compound 18.20]
Between the two listed entries P and Q , which has its pIC50 at the higher number? // respond with label for picked entry Q
(Q: 7.41, P: 6.40)

----------
value.type: melting point

Here are 5 compounds together with their reported answers.
Per the records, this compound ( COc1cc(OCP(=O)(O)O)c2nc(N)sc2c1 [Compound 45.1] ) has melting point equal to > 230 °C (dec.)

Per the records, this compound ( CCc1cc(CC)c(-c2ccc(P(=O)(O)O)o2)nc1N [Compound 15.4] ) has melting point equal to 217 to 218 °C

Per the records, this compound ( CCCCCCc1c(C)cc(OCP(=O)(O)O)c2nc(N)sc12 [Compound 40.2] ) has melting point equal to > 250 °C (dec.)

Per the records, this compound ( Cc1c(Cl)cc(OCP(=O)(O)O)c2nc(Cl)sc12 [Compound 37.2] ) has melting point equal to > 250 °C (dec.)

Per the records, this compound ( Nc1nc2c(OCP(=O)(O)O)cc(C(=O)O)cc2s1 [Compound 29.6] ) has melting point equal to > 230 °C (dec.)

Others:
Per the records, this compound ( Cc1cc(OCP(=O)(O)O)c2nc(N)sc2c1 [Compound 32.2] ) has melting point equal to > 250 °C (dec.)

----------
# target: rat liver FBPase (Rattus norvegicus)
# Sequence (P19112 2-363 limits assumed): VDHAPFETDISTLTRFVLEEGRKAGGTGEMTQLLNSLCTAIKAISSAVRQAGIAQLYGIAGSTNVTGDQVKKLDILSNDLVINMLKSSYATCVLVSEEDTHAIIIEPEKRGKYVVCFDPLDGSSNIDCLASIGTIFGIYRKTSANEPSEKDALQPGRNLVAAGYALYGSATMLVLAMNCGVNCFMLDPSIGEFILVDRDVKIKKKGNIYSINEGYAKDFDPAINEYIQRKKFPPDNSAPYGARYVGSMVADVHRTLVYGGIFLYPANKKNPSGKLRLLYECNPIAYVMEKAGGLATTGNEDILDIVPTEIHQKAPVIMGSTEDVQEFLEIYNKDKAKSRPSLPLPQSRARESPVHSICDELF
value.type: IC50 (nM)

Per the records, this compound ( Cc1nc(-c2ccc(P(=O)(O)O)o2)c(CC(C)C)s1 [Compound 3.2] ) has IC50 equal to 2500

Per the records, this compound ( CC(C)Cc1[se]c(N)nc1-c1ccc(P(=O)(O)O)o1 [Compound 3.70] ) has IC50 equal to 150

Per the records, this compound ( CCCc1oc(N)nc1-c1ccc(P(=O)(O)O)o1 [Compound 10.2] ) has IC50 equal to 2500
